Please respond with reported combination Emax for every item in the list.
System: CAMA-1 (Breast Carcinoma)
Experiment: combination Emax (second highest fraction inhibited in the dose matrix, 72 h); higher = more inhibition; extreme values may be limits of the assay
One number for each entry.

CN(CCO)CC[C@H](CSc1ccccc1)Nc1ccc(S(=O)(=O)NC(=O)c2ccc(N3CCC([C@@H](O)c4ccccc4-c4ccc(Cl)cc4)CC3)cc2)cc1S(=O)(=O)C(F)(F)F [AZD4320] + CCN(CCO)CCCOc1ccc2c(Nc3cc(CC(=O)Nc4cccc(F)c4)[nH]n3)ncnc2c1 [AZD2811] (first compound max 1 µM, 7x7, partner max 1 µM) | 0.616
N#Cc1cnc(Nc2cc(NC[C@H]3CNCCO3)c(C(F)(F)F)cn2)cn1 [SRA737] + Nc1ccn([C@@H]2O[C@H](CO)[C@@H](O)C2(F)F)c(=O)n1 [Gemcitabine] (first compound max 10 µM, 7x7, partner max 0.3 µM) | 0.455

Now examine the next entry.
### Prompt Quick check: combination Emax on CAMA-1 (Breast Carcinoma), item Cc1c2c(nn1C)CSCc1cc(n(C)n1)CSc1cc(c3ccccc3c1)OCCCc1c(C(=O)O)n(C)c3c-2c(Cl)ccc13 [AZD5991] + C[C@@H]1COCCN1C2=NC(=NC(=C2)C3(CC3)[S@](=N)(=O)C)C4=C5C=CNC5=NC=C4 [AZD6738] (first compound max 1 µM, 7x7, partner max 10 µM) ?
### Response 0.751

====

Please respond with reported Bliss excess for every item in the list.
Test system: ES8 (Ewing's Sarcoma);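 also: after 72 h of two-drug dosing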
Assay: Bliss excess, mean over the matrix (fraction); higher = more synergy
Answers are plain numbers.

Hi there! I need Bliss excess for each item below, if you can.
1. C[C@@H]1COCCN1c1cc(C2([S@](C)(=N)=O)CC2)nc(-c2ccnc3[nH]ccc23)n1 [AZD6738] + C1CC(C1)(C(=O)[O-])C(=O)[O-].N.N.[Pt+2] [Carboplatin] (first compound max 10 µM, 7x7, partner max 10 µM)
2. COc1cccc2c1C(=O)c1c(O)c3c(c(O)c1C2=O)C[C@@](O)(C(=O)CO)C[C@@H]3O[C@H]1C[C@H](N)[C@H](O)[C@H](C)O1 [Doxorubicin] + Cc1cc2ncnn2cc1Nc1ncc2c(n1)n(C1CCOCC1)c(=O)n2C [AZD7648] (first compound max 1 µM, 7x7, partner max 10 µM)

### Response
1: 0.0982; 2: 0.125

====

Please respond with reported combination Emax for every item in the list.
Tested on: ES1 (Ewing's Sarcoma)
Assay: combination Emax (second highest fraction inhibited in the dose matrix, 72 h); higher = more inhibition; extreme values may be limits of the assay
One number for each entry.

# count of solved cases: 3
CCN(CCO)CCCOc1ccc2c(Nc3cc(CC(=O)Nc4cccc(F)c4)[nH]n3)ncnc2c1 [AZD2811] + C=CCn1c(=O)c2cnc(Nc3ccc(N4CCN(C)CC4)cc3)nc2n1-c1cccc(C(C)(C)O)n1 [AZD1775] (first compound max 1 µM, partner max 1 µM) | 0.779
COc1cccc2c1C(=O)c1c(O)c3c(c(O)c1C2=O)C[C@@](O)(C(=O)CO)C[C@@H]3O[C@H]1C[C@H](N)[C@H](O)[C@H](C)O1 [Doxorubicin] + Cc1cc2ncnn2cc1Nc1ncc2c(n1)n(C1CCOCC1)c(=O)n2C [AZD7648] (first compound max 1 µM, 7x7, partner max 10 µM) | 1
C=CCn1c(=O)c2cnc(Nc3ccc(N4CCN(C)CC4)cc3)nc2n1-c1cccc(C(C)(C)O)n1 [AZD1775] + O=C(c1cc(Cc2n[nH]c(=O)c3ccccc23)ccc1F)N1CCN(C(=O)C2CC2)CC1 [Olaparib] (first compound max 1 µM, partner max 10 µM) | 0.838

### Prompt Quick check: combination Emax on ES1 (Ewing's Sarcoma), item CS(=O)(=O)CCNCc1ccc(-c2ccc3ncnc(Nc4ccc(OCc5cccc(F)c5)c(Cl)c4)c3c2)o1 [Lapatinib] + Cn1cnc2c(F)c(Nc3ccc(Br)cc3Cl)c(C(=O)NOCCO)cc21 [Selumetinib] (first compound max 10 µM, 7x7, partner max 10 µM) ?
### Response 0.452
